Value Type: pIC50
Expect pIC50 as a plain number equal to -log10 of the molar concentration.

-- ask # returns recorded pIC50 (system: UniProt:P08684) for Cl.N[C@@H]1CCC=C(c2ccc(F)cc2)[C@H]1CNc1cc(F)c(S(=O)(=O)Nc2cscn2)cc1Cl
Sequence (P08684 whole entry): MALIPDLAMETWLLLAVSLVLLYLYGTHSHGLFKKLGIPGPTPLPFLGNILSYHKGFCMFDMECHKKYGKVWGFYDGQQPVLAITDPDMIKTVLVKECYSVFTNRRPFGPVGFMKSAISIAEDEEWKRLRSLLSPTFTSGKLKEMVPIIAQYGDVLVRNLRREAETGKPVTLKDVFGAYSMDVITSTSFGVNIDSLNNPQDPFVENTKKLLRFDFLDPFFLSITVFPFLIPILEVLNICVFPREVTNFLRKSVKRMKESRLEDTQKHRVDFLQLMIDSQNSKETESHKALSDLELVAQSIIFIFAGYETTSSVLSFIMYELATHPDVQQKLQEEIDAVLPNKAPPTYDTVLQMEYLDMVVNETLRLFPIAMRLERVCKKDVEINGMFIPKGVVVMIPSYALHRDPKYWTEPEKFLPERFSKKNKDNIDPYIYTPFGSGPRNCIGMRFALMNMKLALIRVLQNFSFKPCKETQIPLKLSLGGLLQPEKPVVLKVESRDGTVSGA
-- reply 4.48

* * *

Please provide measured fraction unbound at 4 h, 2 µM for the entries that follow.
Assay: Fraction unbound in rat plasma at 2 uM after 4 hrs by LC-MS/MS analysis
Type: ADME, cell-free
Give the figure by itself; no unit, no explanation.

-- ask // query fraction unbound at 4 h, 2 µM value for entry CCN[C@@H]1CCC=C(c2ccc(F)cc2)[C@H]1COc1cc(F)c(S(=O)(=O)Nc2cscn2)cc1Cl.Cl
-- reply 0.035

-- ask Tell me the measured fraction unbound at 4 h, 2 µM of Cl.N[C@@H]1CCC=C(c2ccc(F)cc2)[C@H]1CNc1cc(F)c(S(=O)(=O)Nc2cscn2)cc1Cl , please.
-- reply 0.029

-- ask Suppose we examine the compound N[C@@H]1CCC=C(c2ccc(F)cc2)[C@H]1COc1cc(F)c(S(=O)(=O)Nc2cscn2)cc1Cl ; what fraction unbound at 4 h, 2 µM value has been reported?
-- reply 0.02

* * *

Would you mind telling me the reported IC50 of each entry?

-- ask GET /values?readout=IC50&system=Cytochrome P450 1A2 (Homo sapiens)&item= Cl.N[C@@H]1CCC=C(c2ccc(F)cc2)[C@H]1COc1cc(F)c(S(=O)(=O)Nc2nccs2)cc1Cl (racemic)
-- reply > 50 µM

-- ask // fetch Cytochrome P450 1A2 (Homo sapiens) IC50 for CCN[C@@H]1CCC=C(c2ccc(F)cc2)[C@H]1CNc1cc(F)c(S(=O)(=O)Nc2nccs2)cc1Cl.Cl
-- reply > 50 µM

* * *

Test: Oral bioavailability in Sprague-Dawley rat at 10 mg/kg administered as single dose via gavage by LC-MS/MS analysis
Format: ADME, organism-based
Conditions: in vivo
Value Type: bioavailability

-- ask Report bioavailability for Cl.N[C@@H]1CCC=C(c2ccc(F)cc2)[C@H]1CNc1cc(F)c(S(=O)(=O)Nc2cscn2)cc1Cl please.
-- reply 30%

-- ask Given the compound Cl.N[C@@H]1CCC=C(c2ccc(F)cc2)[C@H]1COc1cc(F)c(S(=O)(=O)Nc2nccs2)cc1Cl (racemic) , what is its reported bioavailability?
-- reply 0.3%

-- ask For the compound CCN[C@@H]1CCC=C(c2ccc(F)cc2)[C@H]1COc1cc(F)c(S(=O)(=O)Nc2nccs2)cc1Cl.Cl (racemic) , what bioavailability is on record?
-- reply 3%

-- ask May I ask what bioavailability has been recorded for CCN[C@@H]1CCC=C(c2ccc(F)cc2)[C@H]1COc1cc(F)c(S(=O)(=O)Nc2cscn2)cc1Cl.Cl ?
-- reply 37%

* * *

Experiment: AUC in Sprague-Dawley rat at 10 mg/kg administered as single dose via oral gavage by LC-MS/MS analysis
Format: ADME, organism-based
Conditions: in vivo
Kindly state AUC for each of the entries shown.
Record the value in µM·h, omitting the unit from your answer.

-- ask Give its AUC value. Item: Cl.N[C@@H]1CCC=C(c2ccc(F)cc2)[C@H]1COc1cc(F)c(S(=O)(=O)Nc2nccs2)cc1Cl (racemic)
-- reply 0.03

-- ask Requested field: AUC. Item: CCN[C@@H]1CCC=C(c2ccc(F)cc2)[C@H]1COc1cc(F)c(S(=O)(=O)Nc2cscn2)cc1Cl.Cl
-- reply 3.04

-- ask # lookup: AUC of CCN[C@@H]1CCC=C(c2ccc(F)cc2)[C@H]1COc1cc(F)c(S(=O)(=O)Nc2nccs2)cc1Cl.Cl (racemic)
-- reply 0.12

-- ask Please report the recorded AUC for Cl.N[C@@H]1CCC=C(c2ccc(F)cc2)[C@H]1CNc1cc(F)c(S(=O)(=O)Nc2cscn2)cc1Cl .
-- reply 4.86

* * *

What IC50 was measured for each of the following?
Biological target: Sodium channel protein type 9 subunit alpha (Homo sapiens)
Sequence (Q15858 whole entry): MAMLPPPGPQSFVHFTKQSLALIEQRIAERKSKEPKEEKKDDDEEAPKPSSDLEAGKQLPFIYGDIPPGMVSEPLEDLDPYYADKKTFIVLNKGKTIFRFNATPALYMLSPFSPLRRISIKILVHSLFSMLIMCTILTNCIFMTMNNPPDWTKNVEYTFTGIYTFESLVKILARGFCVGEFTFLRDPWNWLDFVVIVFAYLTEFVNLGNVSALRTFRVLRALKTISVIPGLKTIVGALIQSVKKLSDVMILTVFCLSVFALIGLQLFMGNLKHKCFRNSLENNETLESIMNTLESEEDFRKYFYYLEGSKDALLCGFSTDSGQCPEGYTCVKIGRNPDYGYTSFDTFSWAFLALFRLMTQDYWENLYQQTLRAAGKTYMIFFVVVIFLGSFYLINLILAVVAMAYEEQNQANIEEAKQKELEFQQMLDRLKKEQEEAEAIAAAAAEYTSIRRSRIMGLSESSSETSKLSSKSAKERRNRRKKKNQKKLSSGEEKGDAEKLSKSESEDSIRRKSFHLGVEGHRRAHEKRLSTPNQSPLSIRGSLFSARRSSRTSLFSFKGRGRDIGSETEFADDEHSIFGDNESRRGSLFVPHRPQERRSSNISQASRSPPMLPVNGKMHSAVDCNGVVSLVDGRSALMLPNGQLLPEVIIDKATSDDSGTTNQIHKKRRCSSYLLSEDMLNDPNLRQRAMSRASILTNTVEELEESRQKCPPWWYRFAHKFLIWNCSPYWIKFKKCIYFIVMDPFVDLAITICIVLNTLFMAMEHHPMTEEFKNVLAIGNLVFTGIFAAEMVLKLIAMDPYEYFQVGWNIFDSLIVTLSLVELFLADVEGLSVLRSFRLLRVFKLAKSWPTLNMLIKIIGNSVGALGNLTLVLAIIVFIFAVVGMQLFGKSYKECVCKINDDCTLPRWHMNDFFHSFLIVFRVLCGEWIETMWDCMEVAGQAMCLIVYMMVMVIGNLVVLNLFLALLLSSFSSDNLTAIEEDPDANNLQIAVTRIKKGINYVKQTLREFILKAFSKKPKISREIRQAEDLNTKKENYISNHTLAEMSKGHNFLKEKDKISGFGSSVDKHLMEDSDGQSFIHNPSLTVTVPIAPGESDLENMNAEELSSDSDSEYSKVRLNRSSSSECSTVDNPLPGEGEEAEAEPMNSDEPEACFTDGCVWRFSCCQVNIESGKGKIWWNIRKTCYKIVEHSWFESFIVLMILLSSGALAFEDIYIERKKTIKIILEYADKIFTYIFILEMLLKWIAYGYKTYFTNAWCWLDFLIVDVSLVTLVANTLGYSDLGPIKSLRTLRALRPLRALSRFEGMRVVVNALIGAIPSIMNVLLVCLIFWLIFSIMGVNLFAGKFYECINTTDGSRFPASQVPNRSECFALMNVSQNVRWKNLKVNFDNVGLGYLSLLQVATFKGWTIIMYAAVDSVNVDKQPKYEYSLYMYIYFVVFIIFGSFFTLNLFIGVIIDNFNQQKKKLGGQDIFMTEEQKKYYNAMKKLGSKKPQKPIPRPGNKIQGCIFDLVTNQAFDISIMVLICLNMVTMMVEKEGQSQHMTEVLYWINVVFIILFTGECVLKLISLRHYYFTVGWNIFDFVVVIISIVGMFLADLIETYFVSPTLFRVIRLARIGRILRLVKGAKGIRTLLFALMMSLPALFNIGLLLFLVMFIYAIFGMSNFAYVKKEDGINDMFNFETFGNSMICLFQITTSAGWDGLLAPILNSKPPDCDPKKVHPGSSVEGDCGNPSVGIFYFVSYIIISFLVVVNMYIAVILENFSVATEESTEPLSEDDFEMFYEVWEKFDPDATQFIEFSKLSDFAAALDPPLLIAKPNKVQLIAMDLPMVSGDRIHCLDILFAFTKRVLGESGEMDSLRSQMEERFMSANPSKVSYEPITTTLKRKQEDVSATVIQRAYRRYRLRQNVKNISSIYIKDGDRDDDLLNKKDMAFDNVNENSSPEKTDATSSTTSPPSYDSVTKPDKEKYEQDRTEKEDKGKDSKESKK
Experiment: Inhibition of human Nav1.7 expressed in CHO-K1 cells at -120 mV holding potential incubated over 5 mins measured at 15 secs interval by Qpatch clamp assay
Response body: numeric value in nM, unit text excluded.

-- ask Item Cl.N[C@@H]1CCC=C(c2ccc(F)cc2)[C@H]1COc1cc(F)c(S(=O)(=O)Nc2nccs2)cc1Cl (racemic) with Sodium channel protein type 9 subunit alpha (Homo sapiens) - IC50?
-- reply 2

-- ask Find IC50 (Sodium channel protein type 9 subunit alpha (Homo sapiens)) for the entry CCN[C@@H]1CCC=C(c2ccc(F)cc2)[C@H]1COc1cc(F)c(S(=O)(=O)Nc2cscn2)cc1Cl.Cl
-- reply 34

-- ask Give the reported IC50 for Cl.N[C@@H]1CCC=C(c2ccc(F)cc2)[C@H]1CNc1cc(F)c(S(=O)(=O)Nc2cscn2)cc1Cl (system: Sodium channel protein type 9 subunit alpha (Homo sapiens)).
-- reply 88

-- ask Recorded IC50 for CN[C@@H]1CCC=C(c2ccc(F)cc2)[C@H]1COc1cc(F)c(S(=O)(=O)Nc2cscn2)cc1Cl.Cl (racemic) with Sodium channel protein type 9 subunit alpha (Homo sapiens), please?
-- reply 170

-- ask Lookup: IC50 / Sodium channel protein type 9 subunit alpha (Homo sapiens) / O=S(=O)(Nc1cscn1)c1cc(Cl)c(OC[C@@H]2C(c3ccc(F)cc3)=CCC[C@H]2N2CCC2)cc1F (racemic)
-- reply 1150

-- ask Which IC50 is reported with Sodium channel protein type 9 subunit alpha (Homo sapiens) for this entry: Cl.N[C@@H]1CCC=C(c2ccc(F)cc2)[C@H]1CSc1cc(F)c(S(=O)(=O)Nc2nccs2)cc1Cl ?
-- reply 5

-- ask For Sodium channel protein type 9 subunit alpha (Homo sapiens), provide IC50 of CCN[C@@H]1CCC=C(c2ccc(F)cc2)[C@H]1CSc1cc(F)c(S(=O)(=O)Nc2cscn2)cc1Cl please.
-- reply 100

-- ask What measured IC50 is associated with O=S(=O)(Nc1cscn1)c1cc(Cl)c(OC[C@@H]2C(c3ccc(F)cc3)=CCC[C@H]2n2cnnc2)cc1F (racemic) on Sodium channel protein type 9 subunit alpha (Homo sapiens)?
-- reply 770

-- ask Provide the documented IC50 with Sodium channel protein type 9 subunit alpha (Homo sapiens) as the system for Cl.N[C@@H]1CCC=C(c2ccc(F)cc2)[C@H]1CNc1cc(F)c(S(=O)(=O)Nc2nccs2)cc1Cl
-- reply 33

-- ask Test system Sodium channel protein type 9 subunit alpha (Homo sapiens); read-out IC50; what value for CN(C)[C@@H]1CCC=C(c2ccc(F)cc2)[C@H]1COc1cc(F)c(S(=O)(=O)Nc2cscn2)cc1Cl.Cl (racemic) ?
-- reply 14

-- ask Give the reported IC50 for CCN[C@@H]1CCC=C(c2ccc(F)cc2)[C@H]1CNc1cc(F)c(S(=O)(=O)Nc2nccs2)cc1Cl.Cl (system: Sodium channel protein type 9 subunit alpha (Homo sapiens)).
-- reply 6

-- ask Lab request: please report IC50 under test system Sodium channel protein type 9 subunit alpha (Homo sapiens) for Cl.N[C@@H]1CCC=C(c2ccc(F)cc2)[C@H]1CSc1cc(F)c(S(=O)(=O)Nc2cscn2)cc1Cl
-- reply 59

* * *

Assay: AUC (0 to last) in Sprague-Dawley rat at 3 mg/kg administered as single iv bolus by LC-MS/MS analysis
Type: ADME, organism-based
Parameters: dose 3 mg/kg, route intravenous, time 0 - last
Conditions: in vivo
Please go through the items and note down their AUC(0-t).
Hi, when you answer, please include the unit after the number. Thanks!

-- ask Param item = Cl.N[C@@H]1CCC=C(c2ccc(F)cc2)[C@H]1CNc1cc(F)c(S(=O)(=O)Nc2cscn2)cc1Cl ; retrieve measured AUC(0-t).
-- reply 4.92 µM·h

-- ask Name the reported AUC(0-t) value associated with the compound CCN[C@@H]1CCC=C(c2ccc(F)cc2)[C@H]1COc1cc(F)c(S(=O)(=O)Nc2cscn2)cc1Cl.Cl
-- reply 2.44 µM·h

* * *

Test: Clearance in Sprague-Dawley rat administered as single iv bolus by LC-MS/MS analysis
Assay type: ADME, organism-based
Conditions: in vivo
Value Type: clearance (mL/min/kg)
Numbers only; they are read as mL/min/kg.

-- ask Query: clearance; subject: CCN[C@@H]1CCC=C(c2ccc(F)cc2)[C@H]1COc1cc(F)c(S(=O)(=O)Nc2nccs2)cc1Cl.Cl (racemic)
-- reply 66.6

-- ask I have this compound here, Cl.N[C@@H]1CCC=C(c2ccc(F)cc2)[C@H]1CSc1cc(F)c(S(=O)(=O)Nc2nccs2)cc1Cl , and I need its recorded clearance.
-- reply 46.5

-- ask // clearance lookup, key: Cl.N[C@@H]1CCC=C(c2ccc(F)cc2)[C@H]1CSc1cc(F)c(S(=O)(=O)Nc2cscn2)cc1Cl
-- reply 26.1

-- ask Report clearance for CCN[C@@H]1CCC=C(c2ccc(F)cc2)[C@H]1COc1cc(F)c(S(=O)(=O)Nc2cscn2)cc1Cl.Cl please.
-- reply 37

-- ask Given the compound Cl.N[C@@H]1CCC=C(c2ccc(F)cc2)[C@H]1CNc1cc(F)c(S(=O)(=O)Nc2nccs2)cc1Cl , what is its reported clearance?
-- reply 44.2

Each recorded value in this set is attributed to ChEMBL document CHEMBL4177611.
